test: yeast display, Sf9 membrane polyspecificity reagent, FACS + sequencing; frameworks hold sequencing errors
assay_endpoint: polyreactivity (PSR sort gate)

Previously resolved entries follow.
residue_string	polyreactivity (PSR sort gate)
QVQLVESGGGLLKAGGSLRLSCAASRITFYIYPIVWYRQAPGKERELVATISWSDGRTYYADSVKGRFTISRDNAEHTVYLQLYSLKPEDTAVYYCAADWWYYQFDYEYWGQGTPVTVSS	low polyreactivity
QVQLVESGGGLVQAGGSLRLSCAASGFIFSKYGMGWYRQAPGKERELVAAISIRGGNTYYADSVKGRFTISRDNAKNTVYLQMNSLKPEDTAVYYCNALSYGRYLNYRGGMDYWGQGTQVTVSS	high polyreactivity
QVQLVESGGGLVQAGGSLRISCAASGSTFLTNTLGWYRQAPGKERELVAAITLRGGRTYYADSVKGRFTISRDNAKNTVYLQMNSLKPEDTAVYYCNARNYYYPSDRDYWGQGTQVTVSS	low polyreactivity
QVQLVESGGGLVQAGGSLRLSCAASGSTIEDNTMGWYRQAPGKERELVAAISNSGGSTYYADSVKGRFTISRDYAKNTVYLQMISLKPEDTAVYYCAADFYDPFDYWGQGTQVTVSS	low polyreactivity

// switching to the query sequence
Query :: Specify polyreactivity (PSR sort gate) for QVQLVESGGGLVQAGGSLRLSCAASGRTFSRYAMGWYRQAPGKERELVAAISWSGGTTHYADSVKGRFTISRDNAKNTVYLQMNSLKPEDTAVYYCNKLRQIEFWGQGTQVTVSS and stop.
Result :: high polyreactivity

Source of measurements: the nanobody polyreactivity screen of Harvey et al. (2022)
